Recorded measurements of T/A, one per entry
Test system: human monocytic cell line THP-1 (ATCC56 TIB202)
Test: Cytotoxicity assay in THP-1 cells
Assay type: cell-based
Details: toxicity/activity index: ratio LC50 (THP-1) / MIC (M. tuberculosis H37Rv)
Property Measured: T/A

> print(dat)
                                   molecule  readout.value
1  CCCCOC(=O)c1cc([N+](=O)[O-])cc(C(F)(F)F)c1           0.54
2  CCCCCCCCNC(=O)c1cc([N+](=O)[O-])cc([N+](=O)[O-])c1 [Compound 7c, N-octyl-3.5-dinitrobenzamide]           6063
3  CCCCOC(=O)c1cc([N+](=O)[O-])cc([N+](=O)[O-])c1             14

* * *

Assay: Stability in Mycobacterium smegmatis homogenate (enzymatic hydrolysis)
Details: mycobacterium smegmatis homogenate, pH 7.4
Use Satisfied when the recorded half-life at 500 µM is no lower than 80 h; use Not satisfied when it is lower.

> print(dat)
                                   compound  class.assignment
1        CCCCCCOC(=O)c1ccc([N+](=O)[O-])cc1     Not satisfied
2  CCCCNC(=O)c1cc([N+](=O)[O-])cc([N+](=O)[O-])c1 [Compound 7a, N-butyl-3.5-dinitrobenzamide]     Not satisfied
3  CCCCOC(=O)c1cc([N+](=O)[O-])cc([N+](=O)[O-])c1     Not satisfied
4          CCCCOC(=O)c1ccc([N+](=O)[O-])cc1     Not satisfied
5  CCCCCCNC(=O)c1cc([N+](=O)[O-])cc([N+](=O)[O-])c1 [Compound 7b, N-hexyl-3.5-dinitrobenzamide]         Satisfied
6  CCCCCCCCOC(=O)c1ccccc1 [Compound 1c, Octyl benzoate]     Not satisfied

* * *

Assay: Cytotoxicity assay in THP-1 cells
Format: cell-based, human
Details: human; THP-1 cells; n/d (no toxicity at maximum tested dose); read-out: LC50 (the source's name)
Property Measured: CC50

> print(dat)
                                   compound  readout.value
1  CCCCCCCCCCCCCCOC(=O)c1cc([N+](=O)[O-])cc([N+](=O)[O-])c1 [Compound 3f]    > 512 µg/mL
2  CCCCCCCCCCCCOC(=O)c1cc([N+](=O)[O-])cc([N+](=O)[O-])c1 [Compound 3e]    > 512 µg/mL
3  CCCCCCCCCCCCCCCCNC(=O)c1cc([N+](=O)[O-])cc([N+](=O)[O-])c1 [Compound 7g, N-hexadecyl-3.5-dinitrobenzamide]    > 512 µg/mL

* * *

Recorded measurements of Degradation (%) 24h, one per entry
Test system: Mycobacterium smegmatis homogenate
Experiment: Stability in Mycobacterium smegmatis homogenate (enzymatic hydrolysis)
Settings: Mycobacterium smegmatis homogenate, 37°C; 24h
Property Measured: Degradation (%) 24h

> print(dat)
                                   compound    property.measured  readout.value
1  CCCCCCCCOC(=O)c1cc([N+](=O)[O-])cc(C(F)(F)F)c1  Degradation (%) 24h              8
2  CCCCOC(=O)c1ccccc1 [Compound 1a, Butyl benzoate]  Degradation (%) 24h            100
3  CCCCOC(=O)c1cc([N+](=O)[O-])cc([N+](=O)[O-])c1  Degradation (%) 24h             93
4  CCCCNC(=O)c1cc([N+](=O)[O-])cc([N+](=O)[O-])c1 [Compound 7a, N-butyl-3.5-dinitrobenzamide]  Degradation (%) 24h             52

* * *

Recorded measurements of Degradation (%) 24h, one per entry
Assay: Stability in human plasma (enzymatic hydrolysis)
Conditions: 24h
Property Measured: Degradation (%) 24h

> print(dat)
                                    compound  readout.value
 1  CCCCCCCCNC(=O)c1ccc([N+](=O)[O-])cc1 [Compound 6c, N-octyl-4-nitrobenzamide]              0
 2  CCCCCCCCCCCCOC(=O)c1cc([N+](=O)[O-])cc([N+](=O)[O-])c1             29
 3  CCCCCCCCCCCCNC(=O)c1cc([N+](=O)[O-])cc([N+](=O)[O-])c1 [Compound 7e, N-dodecyl-3.5-dinitrobenzamide]              0
 4  CCCCCCCCCCCCNC(=O)c1ccc([N+](=O)[O-])cc1 [Compound 6e, N-dodecyl-4-nitrobenzamide]              0
 5  CCCCCCCCNC(=O)c1cc([N+](=O)[O-])cc(C(F)(F)F)c1              0
 6  CCCCCCCCCCOC(=O)c1cc([N+](=O)[O-])cc([N+](=O)[O-])c1 [Compound 3d, Decyl 3,5-dinitrobenzoate]             18
 7  CCCCCCCCCCCCOC(=O)c1ccccc1 [Compound 1e, Dodecyl benzoate]              3
 8  CCCCCCCCCCCCCCCCOC(=O)c1cc([N+](=O)[O-])cc([N+](=O)[O-])c1 [Compound 3g, Hexadecyl 3,5-dinitrobenzoate]              1
 9  CCCCOC(=O)c1ccccc1 [Compound 1a, Butyl benzoate]            100
10  CCCCCCCCNC(=O)c1ccccc1 [Compound 5c, N-octyl-benzamide]              0

* * *

Recorded measurements of MBC, one per entry
Tested on: Mycobacterium tuberculosis H37Rv
Test: MIC and MBC by broth microdilution against M. tuberculosis H37Rv
Format: cell-based, Mycobacterium tuberculosis H37Rv (ATCC 27294)
Conditions: Mycobacterium tuberculosis, H37RV
Property Measured: MBC

> print(dat)
                                   compound                               tgt  readout.value
1  CCCCCCCCCCCCCCOC(=O)c1cc([N+](=O)[O-])cc([N+](=O)[O-])c1 [Compound 3f]  Mycobacterium tuberculosis H37Rv   > 1020 µg/mL
2  CCCCCCCCCCOC(=O)c1cc([N+](=O)[O-])cc([N+](=O)[O-])c1 [Compound 3d, Decyl 3,5-dinitrobenzoate]  Mycobacterium tuberculosis H37Rv        4 µg/mL
3  CCCCCCCCCCCCCCCCNC(=O)c1cc([N+](=O)[O-])cc([N+](=O)[O-])c1 [Compound 7g, N-hexadecyl-3.5-dinitrobenzamide]  Mycobacterium tuberculosis H37Rv        2 µg/mL
4  CCCCOC(=O)c1cc([N+](=O)[O-])cc([N+](=O)[O-])c1 [Compound 3a]  Mycobacterium tuberculosis H37Rv      128 µg/mL
5  CCCCCCCCCCCCCCCCOC(=O)c1cc([N+](=O)[O-])cc([N+](=O)[O-])c1 [Compound 3g, Hexadecyl 3,5-dinitrobenzoate]  Mycobacterium tuberculosis H37Rv   > 1020 µg/mL
6  CCCCCCCCCCCCOC(=O)c1cc([N+](=O)[O-])cc([N+](=O)[O-])c1 [Compound 3e]  Mycobacterium tuberculosis H37Rv       16 µg/mL
7  CCCCCCCCOC(=O)c1cc([N+](=O)[O-])cc([N+](=O)[O-])c1 [Compound 3c]  Mycobacterium tuberculosis H37Rv        8 µg/mL

* * *

Assay: Cytotoxicity assay in THP-1 cells
Format: cell-based, human
Conditions: human, THP-1 monocytic cells; THP-1 cells; lethal concentration for 50% of the cell population; read-out: LC50 (the source's name)
# note: exactly 100 µg/mL is not below, so it is FALSE; use TRUE for CC50 strictly under it

> print(dat)
                                    compound  class.assignment
 1  CCCCCCOC(=O)c1cc([N+](=O)[O-])cc(C(F)(F)F)c1             FALSE
 2  CCCCCCCCOC(=O)c1ccc([N+](=O)[O-])cc1 [Compound 2c, Octyl 4-nitrobenzoate]             FALSE
 3  CCCCNC(=O)c1cc([N+](=O)[O-])cc(C(F)(F)F)c1              TRUE
 4  CCCCOC(=O)c1cc([N+](=O)[O-])cc(C(F)(F)F)c1             FALSE
 5  CCCCCCNC(=O)c1cc([N+](=O)[O-])cc(C(F)(F)F)c1              TRUE
 6  CCCCCCCCNC(=O)c1ccc([N+](=O)[O-])cc1 [Compound 6c, N-octyl-4-nitrobenzamide]             FALSE
 7  CCCCCCCCCCCCNC(=O)c1cc([N+](=O)[O-])cc(C(F)(F)F)c1             FALSE
 8  CCCCCCCCNC(=O)c1cc([N+](=O)[O-])cc(C(F)(F)F)c1              TRUE
 9  CCCCCCCCNC(=O)c1ccccc1 [Compound 5c, N-octyl-benzamide]             FALSE
10  CCCCCCCCCCNC(=O)c1cc([N+](=O)[O-])cc(C(F)(F)F)c1              TRUE
